Target: T1, NP (ΔNPNTD) NTD (Zaire ebolavirus), P18272
T1 chain: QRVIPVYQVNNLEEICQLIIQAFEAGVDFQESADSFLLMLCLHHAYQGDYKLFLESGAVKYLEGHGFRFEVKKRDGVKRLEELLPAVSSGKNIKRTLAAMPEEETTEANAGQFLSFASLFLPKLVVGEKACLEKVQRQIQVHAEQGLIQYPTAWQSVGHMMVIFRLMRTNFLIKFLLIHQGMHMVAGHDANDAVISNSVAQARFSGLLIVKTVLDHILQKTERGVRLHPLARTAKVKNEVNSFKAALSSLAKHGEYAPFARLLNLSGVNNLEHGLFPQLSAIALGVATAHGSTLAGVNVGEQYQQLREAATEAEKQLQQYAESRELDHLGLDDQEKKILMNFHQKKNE
Assay: competition
Conditions: modification not given
RECORDED METRIC: pIC50
Reminder that pIC50 means the negative base-10 logarithm of the concentration expressed in mol/L.

Prompt: Record request: pIC50 value, item MPGPELSGWISEQLMTGRIPVSDIFCDIE [VP35 NPBP 20-48, Q05127]
Completion: 6.58

Source: paper PMC5735849
